# System: erythrocytes
# assay_notes: Hemolytic activity (HD10/HD50)
# Assay type: cell-based
Square brackets hold non-standard residues; d marks the D form. Peptide text beside a SMILES is read from it. Nspe = C[C@H](NCC(=O)O)c1ccccc1; Nlys = NCCCCNCC(=O)O
test_readout: HD10 (hemolytic activity)
Answer with a number only.

Input: Which HD10 (hemolytic activity) is listed for C[C@@H](c1ccccc1)N(CC(N)=O)C(=O)CN(C(=O)CN(CCCCN)C(=O)[C@@H]1CCCN1C(=O)CN(C(=O)CN(CCCCN)C(=O)CN(C(=O)CN(C(=O)CN(CCCCN)C(=O)CN(C(=O)CN(C(=O)CNCCCCN)[C@@H](C)c1ccccc1)[C@@H](C)c1ccccc1)[C@@H](C)c1ccccc1)[C@@H](C)c1ccccc1)[C@@H](C)c1ccccc1)[C@@H](C)c1ccccc1 [Peptoid 1-Pro9] (H-[Nlys][Nspe][Nspe][Nlys][Nspe][Nspe][Nlys][Nspe]P[Nlys][Nspe][Nspe]-NH2) ?
Output: 165

====

Each item that follows carries a reported MIC.
# Tested on: E. faecium T62764 (VRE)
# assay_notes: microbe, parasite or virus in culture
# condition_context: T62764 (VRE)
# Method: The MICs of test agents were measured using a modified broth micro-dilution method in Difco Mueller Hinton medium, on a panel of bacterial pathogens that were both susceptible and resistant to common antibiotics (S1 File). Briefly, serial dilutions were performed in 0.01% acetic acid containing 0.2% bovine serum albumin at 10-fold the desired final concentration. […]
Numbered stars: 1 amine (or outer) side, 2 acyl side, 3 side chain; on linkers, the order of the positions; unused ones are H or OH. Square brackets hold non-standard residues; d marks the D form. Peptide text beside a SMILES is read from it. X1 = CC(C)[C@H](C)N(CC(=O)[*:2])[*:1]; Nspe = C[C@H](NCC(=O)O)c1ccccc1; Nphe = O=C(O)CNCc1ccccc1; Nlys = NCCCCNCC(=O)O
# output: bare number, implied unit µg/mL

molecule	test_readout	measured
CC(C)[C@H](C)N(CC(N)=O)C(=O)CN(C(=O)CN(CCCCN)C(=O)CN(C(=O)CN(C(=O)CN(CCCCN)C(=O)CN(C(=O)CN(C(=O)CN(CCCCN)C(=O)CN(C(=O)CN(C(=O)CNCCCCN)[C@@H](C)C(C)C)[C@@H](C)C(C)C)[C@@H](C)C(C)C)[C@@H](C)C(C)C)[C@@H](C)C(C)C)[C@@H](C)C(C)C)[C@@H](C)C(C)C [Peptoid 1-Nsdpall, H-(NLys-Nsdp-Nsdp)4-NH2]	MIC	4
C[C@H](NCC(=O)N(CC(=O)N(CCCCN)CC(=O)N(CC(=O)N(CCCCN)CC(=O)N(CC(=O)N(CCCCN)CC(=O)N(CC(=O)N(CC(=O)N(CC(=O)N(CC(=O)N(CCCCN)CC(N)=O)[C@@H](C)c1ccccc1)[C@@H](C)c1ccccc1)[C@@H](C)c1ccccc1)[C@@H](C)c1ccccc1)[C@@H](C)c1ccccc1)[C@@H](C)c1ccccc1)[C@@H](C)c1ccccc1)c1ccccc1 [Peptoid 1scr, H-(Nspe)2-(NLys-Nspe)3-(Nspe)3-NLys-NH2] (H-[Nspe][Nspe][Nlys][Nspe][Nlys][Nspe][Nlys][Nspe][Nspe][Nspe][Nspe][Nlys]-NH2)	MIC	2
C[C@@H](c1ccccc1)N(CC(N)=O)C(=O)CN(Cc1ccccc1)C(=O)CN(CCCCN)C(=O)CN(C(=O)CN(Cc1ccccc1)C(=O)CN(CCCCN)C(=O)CN(C(=O)CN(Cc1ccccc1)C(=O)CN(CCCCN)C(=O)CN(C(=O)CN(Cc1ccccc1)C(=O)CNCCCCN)[C@@H](C)c1ccccc1)[C@@H](C)c1ccccc1)[C@@H](C)c1ccccc1 [1-Npm2,5,8,11, H-(NLys-Npm-Nspe)4-NH2] (H-[Nlys][Nphe][Nspe][Nlys][Nphe][Nspe][Nlys][Nphe][Nspe][Nlys][Nphe][Nspe]-NH2)	MIC	1
CC(C)[C@H](C)N(CC(=O)N(CCCCN)CC(=O)N(CC(=O)N(CC(=O)N(CCCCN)CC(=O)N(CC(=O)N(CC(=O)N(CCCCN)CC(=O)N(CC(=O)N(CC(N)=O)[C@@H](C)c1ccccc1)[C@@H](C)c1ccccc1)[C@@H](C)C(C)C)[C@@H](C)C(C)C)[C@@H](C)c1ccccc1)[C@@H](C)c1ccccc1)C(=O)CN(C(=O)CNCCCCN)[C@@H](C)C(C)C [1-Nsdp2,3,8,9, H-(NLys-Nsdp-Nsdp-NLys-Nspe-Nspe)2-NH2] (H-[Nlys][X1][X1][Nlys][Nspe][Nspe][Nlys][X1][X1][Nlys][Nspe][Nspe]-NH2)	MIC	1
C[C@@H](c1ccccc1)N(CC(N)=O)C(=O)CN(Cc1ccccc1)C(=O)CN(CCCCN)C(=O)CN(Cc1ccccc1)C(=O)CN(Cc1ccccc1)C(=O)CN(CCCCN)C(=O)CN(Cc1ccccc1)C(=O)CN(Cc1ccccc1)C(=O)CN(CCCCN)C(=O)CN(Cc1ccccc1)C(=O)CN(Cc1ccccc1)C(=O)CNCCCCN [Peptoid 1ach-Nspe12, H-(NLys-Npm-Npm)3-(NLys-Npm-Nspe)-NH2]	MIC	1

Below: the item to evaluate.
Input: Look up MIC for this molecule: C[C@@H](c1ccccc1)N(CC(N)=O)C(=O)CN(C(=O)CN(CCCCN)C(=O)CN(C(=O)CN(C(=O)CN(CCCCN)C(=O)CN(C(=O)CN(C(=O)CN(CCCCN)C(=O)[C@@H]1CCCN1C(=O)CN(C(=O)CNCCCCN)[C@@H](C)c1ccccc1)[C@@H](C)c1ccccc1)[C@@H](C)c1ccccc1)[C@@H](C)c1ccccc1)[C@@H](C)c1ccccc1)[C@@H](C)c1ccccc1 [Peptoid 1-Pro3, H-NLys-Nspe-L-Pro-(NLys-Nspe-Nspe)3-NH2] (H-[Nlys][Nspe]P[Nlys][Nspe][Nspe][Nlys][Nspe][Nspe][Nlys][Nspe][Nspe]-NH2)
Output: 2

====

# Test system: erythrocytes
# assay_notes: Hemolytic activity (HD10/HD50)
# Format: cell-based
Square brackets hold non-standard residues; d marks the D form. Peptide text beside a SMILES is read from it. Nspe = C[C@H](NCC(=O)O)c1ccccc1; Nlys = NCCCCNCC(=O)O
Items are presented alongside their recorded HD10 (hemolytic activity).
Please reply with the number alone, leaving off any unit.

compound	HD10 (hemolytic activity)
C[C@@H](c1ccccc1)N(CC(N)=O)C(=O)CN(C(=O)CN(CCCCN)C(=O)CN(C(=O)CN(C(=O)CN(CCCCN)C(=O)CN(C(=O)CN(C(=O)CN(CCCCN)C(=O)[C@@H]1CCCN1C(=O)CN(C(=O)CNCCCCN)[C@@H](C)c1ccccc1)[C@@H](C)c1ccccc1)[C@@H](C)c1ccccc1)[C@@H](C)c1ccccc1)[C@@H](C)c1ccccc1)[C@@H](C)c1ccccc1 [Peptoid 1-Pro3, H-NLys-Nspe-L-Pro-(NLys-Nspe-Nspe)3-NH2] (H-[Nlys][Nspe]P[Nlys][Nspe][Nspe][Nlys][Nspe][Nspe][Nlys][Nspe][Nspe]-NH2)	74

Input: Returns the measured HD10 (hemolytic activity) for the input compound. Input: C[C@@H](c1ccccc1)N(CC(N)=O)C(=O)CN(C(=O)CN(CCCCN)C(=O)CN(C(=O)CN(C(=O)CN(CCCCN)C(=O)[C@@H]1CCCN1C(=O)CN(C(=O)CN(CCCCN)C(=O)CN(C(=O)CN(C(=O)CNCCCCN)[C@@H](C)c1ccccc1)[C@@H](C)c1ccccc1)[C@@H](C)c1ccccc1)[C@@H](C)c1ccccc1)[C@@H](C)c1ccccc1)[C@@H](C)c1ccccc1 [Peptoid 1-Pro6] (H-[Nlys][Nspe][Nspe][Nlys][Nspe]P[Nlys][Nspe][Nspe][Nlys][Nspe][Nspe]-NH2)
Output: 83

====

# System: erythrocytes
# assay_notes: Hemolytic activity (HD10/HD50)
# Type: cell-based
Square brackets hold non-standard residues; d marks the D form. Peptide text beside a SMILES is read from it. Nspe = C[C@H](NCC(=O)O)c1ccccc1; Nphe = O=C(O)CNCc1ccccc1; Nlys = NCCCCNCC(=O)O
The entries below come with measured HD50 (hemolytic activity) values attached.

Please review the entries below; each comes with its answer.
compound	HD50 (hemolytic activity)
C[C@@H](c1ccccc1)N(CC(=O)N(CC(=O)N(CCCCN)CC(=O)N(CC(=O)N(CC(=O)N(CCCCN)CC(=O)N(CC(=O)N(CC(=O)N(CCCCN)CC(=O)N(CC(=O)N(CC(N)=O)Cc1ccccc1)Cc1ccccc1)Cc1ccccc1)Cc1ccccc1)Cc1ccccc1)Cc1ccccc1)Cc1ccccc1)C(=O)CNCCCCN [Peptoid 1ach-Nspe2, H-(NLys-Nspe-Npm)- (NLys-Npm-Npm)3-NH2] (H-[Nlys][Nspe][Nphe][Nlys][Nphe][Nphe][Nlys][Nphe][Nphe][Nlys][Nphe][Nphe]-NH2)	> 200
C[C@@H](c1ccccc1)N(CC(N)=O)C(=O)CN(CCCCN)C(=O)CN(C(=O)CN(C(=O)CN(CCCCN)C(=O)CN(C(=O)CN(C(=O)CN(CCCCN)C(=O)CN(C(=O)CN(C(=O)CNCCCCN)[C@@H](C)c1ccccc1)[C@@H](C)c1ccccc1)[C@@H](C)c1ccccc1)[C@@H](C)c1ccccc1)[C@@H](C)c1ccccc1)[C@@H](C)c1ccccc1 [Peptoid 1_11mer, H-(NLys-Nspe-Nspe)3-NLys-Nspe-NH2] (H-[Nlys][Nspe][Nspe][Nlys][Nspe][Nspe][Nlys][Nspe][Nspe][Nlys][Nspe]-NH2)	> 200
C[C@@H](c1ccccc1)N(CC(N)=O)C(=O)CN(Cc1ccccc1)C(=O)CN(CCCCN)C(=O)CN(C(=O)CN(Cc1ccccc1)C(=O)CN(CCCCN)C(=O)CN(C(=O)CN(Cc1ccccc1)C(=O)CN(CCCCN)C(=O)CN(C(=O)CN(Cc1ccccc1)C(=O)CNCCCCN)[C@@H](C)c1ccccc1)[C@@H](C)c1ccccc1)[C@@H](C)c1ccccc1 [1-Npm2,5,8,11, H-(NLys-Npm-Nspe)4-NH2] (H-[Nlys][Nphe][Nspe][Nlys][Nphe][Nspe][Nlys][Nphe][Nspe][Nlys][Nphe][Nspe]-NH2)	> 200
C[C@@H](c1ccccc1)N(CC(N)=O)C(=O)CN(CCCCN)C(=O)CN(CCCCN)C(=O)CN(C(=O)CN(C(=O)CN(CCCCN)C(=O)CN(C(=O)CN(CCCCN)C(=O)CN(CCCCN)C(=O)CN(C(=O)CN(C(=O)CNCCCCN)[C@@H](C)c1ccccc1)[C@@H](C)c1ccccc1)[C@@H](C)c1ccccc1)[C@@H](C)c1ccccc1)[C@@H](C)c1ccccc1 [1-NLys5,11, H-(NLys-Nspe-Nspe-NLys-NLys-Nspe)2-NH2] (H-[Nlys][Nspe][Nspe][Nlys][Nlys][Nspe][Nlys][Nspe][Nspe][Nlys][Nlys][Nspe]-NH2)	>100 / >100

Now let's try a different one.
Input: Would you mind telling me what HD50 (hemolytic activity) value was observed for C[C@H](NCC(=O)N(CCCCN)CC(=O)N(CC(=O)N(CCCCN)CC(=O)N(CCCCN)CC(=O)N(CC(=O)N(CC(=O)N(CCCCN)CC(=O)N(CC(=O)N(CCCCN)CC(=O)N(CCCCN)CC(=O)N(CC(N)=O)[C@@H](C)c1ccccc1)[C@@H](C)c1ccccc1)[C@@H](C)c1ccccc1)[C@@H](C)c1ccccc1)[C@@H](C)c1ccccc1)c1ccccc1 [1B-NLys4,10, H-(Nspe-NLys-Nspe-NLys-NLys-Nspe)2-NH2] (H-[Nspe][Nlys][Nspe][Nlys][Nlys][Nspe][Nspe][Nlys][Nspe][Nlys][Nlys][Nspe]-NH2) ?
Output: >200 / >200
